tested on: MALME-3M melanoma; experiment: NCI-60 one-dose screen, 48 h (100 = growth as untreated, 0 = no growth, -100 = all killed); conditions: 10 µM unless noted
This is part of a sample that, as a whole, favours compounds with a hit. Of some 83,000 tested, about 20% had one in any assay.
This listing pairs molecules with measured growth.
Give just the number in %; leave the unit off.

Use the examples below as a reference point.
CCCCC[C@@H]1Cc2cc(O)c(C(=O)O)c3c2[C@H](C[C@]2(OC[C@@H](CC(=O)[C@@](C)(CC)C(=O)OC)[C@@H]2C)O3)O1	104
COc1cc(-c2cc(-c3ccc(N(C)C)cc3)nc(N3CCC(O)CC3)c2C#N)cc(OC)c1OC	-45.3
Cc1ccc(C(C(N)=O)C(C(N)=O)c2ccccc2)cc1 (stereo not given)	129

# growth of CN1CCN(Cc2ccc(NC(=O)c3cncc(C#Cc4cnc(N)c5ccccc45)c3)cc2C(F)(F)F)CC1 = -88.6

Sure, the documented growth for Cc1cccnc1NC(=S)Nc1ncccc1C is 113
